molecular target: human ErbB2, full length, on cells (B300.19/hErbB2 clone #44; MCF7; BT474; SKBR3) (human)
MEASURE: log10(EC50 (ng/ml) n1, inhibition of Heregulin-induced ErbB2 phosphorylation in MCF7 cells) (log10 of the value in ng/mL)
In our notation, the value equals log10 of EC50 (ng/ml) n1, inhibition of Heregulin-induced ErbB2 phosphorylation in MCF7 cells in ng/mL.

| BINDER | NUMERIC_VALUE |
| --- | --- |
| monoclonal antibody 1.96 (antibody, V domains shown) VH: EVQLVESGGGLVQPGGSLRLSCAASGFTFSSYWMSWVRQAPGKGLEWVANIKQDGSEKYYVDSVKGRFTISRDNAKNSLYLQMNSLRAEDTAVYYCARWGVFGSGSYYIPFDYWGQGTLVTVSS VL: DIQMTQSPSSLSASVGDRVTITCRASHSITRYINWYQQKPGKAPNLLIYAASSLQSGVPSRFSGSGSGTDFTLTISSPQPEDFATYYCQQSYSSPPITFGQGTRLEIK | 1.46 |
| monoclonal antibody 1.39 (antibody, V domains shown) VH: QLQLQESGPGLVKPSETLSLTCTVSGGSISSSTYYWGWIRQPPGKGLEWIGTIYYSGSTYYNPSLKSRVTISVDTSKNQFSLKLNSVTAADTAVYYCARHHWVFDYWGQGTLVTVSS VL: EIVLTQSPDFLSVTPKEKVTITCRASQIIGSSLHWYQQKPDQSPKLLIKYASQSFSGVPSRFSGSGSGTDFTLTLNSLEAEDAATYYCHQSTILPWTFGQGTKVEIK | 1.67 |
| monoclonal antibody 1.14.1 (antibody, V domains shown) VH: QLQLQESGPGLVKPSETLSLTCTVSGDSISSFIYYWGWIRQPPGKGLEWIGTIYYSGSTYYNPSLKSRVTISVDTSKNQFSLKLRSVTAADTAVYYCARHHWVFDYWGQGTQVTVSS VL: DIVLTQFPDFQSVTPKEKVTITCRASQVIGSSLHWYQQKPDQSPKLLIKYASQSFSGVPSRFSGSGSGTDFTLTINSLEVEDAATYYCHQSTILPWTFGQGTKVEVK | 1.53 |
| monoclonal antibody 1.20 (antibody, V domains shown) VH: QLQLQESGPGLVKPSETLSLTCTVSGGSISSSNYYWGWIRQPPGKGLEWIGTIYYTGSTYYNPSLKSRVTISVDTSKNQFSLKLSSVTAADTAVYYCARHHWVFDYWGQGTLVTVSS VL: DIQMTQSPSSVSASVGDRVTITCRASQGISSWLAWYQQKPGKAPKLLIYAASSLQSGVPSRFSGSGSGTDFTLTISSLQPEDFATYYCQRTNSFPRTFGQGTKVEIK | 1.19 |
| monoclonal antibody 1.18.1 (antibody, V domains shown) VH: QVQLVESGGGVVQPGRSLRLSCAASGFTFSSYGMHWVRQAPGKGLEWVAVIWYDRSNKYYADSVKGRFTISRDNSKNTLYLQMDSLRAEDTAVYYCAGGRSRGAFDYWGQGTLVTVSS VL: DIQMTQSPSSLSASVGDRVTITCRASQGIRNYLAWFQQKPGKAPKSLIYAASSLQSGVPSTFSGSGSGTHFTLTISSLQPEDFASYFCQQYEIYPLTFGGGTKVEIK | 0.62 |

Now for the binder whose log10(EC50 (ng/ml) n1, inhibition of Heregulin-induced ErbB2 phosphorylation in MCF7 cells) we want.
input: Sample monoclonal antibody 1.100.1 (antibody, V domains shown) VH: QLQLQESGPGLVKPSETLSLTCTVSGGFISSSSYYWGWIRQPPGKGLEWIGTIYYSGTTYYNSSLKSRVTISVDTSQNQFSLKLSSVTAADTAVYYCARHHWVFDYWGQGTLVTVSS VL: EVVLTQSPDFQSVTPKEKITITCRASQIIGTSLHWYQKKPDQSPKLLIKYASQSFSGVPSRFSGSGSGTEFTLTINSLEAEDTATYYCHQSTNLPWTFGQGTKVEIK — what was its log10(EC50 (ng/ml) n1, inhibition of Heregulin-induced ErbB2 phosphorylation in MCF7 cells)?
output: 1.60
